- protocol-description: acute toxicity tests in mice (Test 2)
- condition-summary: mouse, in vivo; male mice, oral, in olive oil; mortality after 72 hours, area method
- Procedure: In the acute toxicity tests, male mice (weight: 22 to 25 g) were used in groups of 10 each. Each active ingredient was dissolved in olive oil and the solution was orally administrated in a volume corresponding to the body weight. LD50 was calculated by the area method from the mortal percent after 72 hours from the administration.
measured-property: LD50 at 72 h

CCOC(=O)C(Oc1cccc(C(F)(F)F)c1)C1CCCCC1 (stereo not drawn)    2500 mg/kg
CCOC(=O)C(Oc1cccc(C(C)=O)c1)C1CCCCC1 (stereo not drawn)    > 3000 mg/kg
CCOC(=O)C(Oc1c(C)cccc1C)C1CCCCC1 (stereo not drawn)    > 3000 mg/kg
O=C(O)C(Oc1ccc(C2CCCCC2)cc1)C1CCCCC1 (stereo not drawn)    > 3000 mg/kg
CCOC(=O)C(Oc1cccnc1)C1CCCCC1 (stereo not drawn)    2500 mg/kg
CCOC(=O)C(Oc1ccc(OC)cc1)C1CCCCC1 (stereo not drawn)    > 3000 mg/kg

## Input Complete the entry with LD50 at 72 h for CCOC(=O)C(Oc1ccc(C2CCCCC2)cc1)C1CCCCC1 (stereo not drawn)
## Output > 3000 mg/kg

## Input Report LD50 at 72 h for CCOC(=O)C(Oc1ccc(-c2ccccc2)cc1)C1CCCCC1 (stereo not drawn)
## Output > 3000 mg/kg

## Input Output LD50 at 72 h of CCOC(=O)C(Oc1ccc(C(C)CC)cc1)C1CCCCC1 (stereo not drawn)
## Output > 3000 mg/kg

----------
Quick reference for LD50 at 72 h among some compounds
- protocol-description: acute toxicity tests in mice (Test 2)
- condition-summary: mouse, in vivo; male mice, oral, in olive oil; mortality after 72 hours, area method

Reference set, count: 5
CCOC(=O)C(Oc1cccc(C)c1)C1CCCCC1 (stereo not shown) [Compound 13]    > 3000 mg/kg
CCOC(=O)C(Oc1ccc(C(C)=O)cc1)C1CCCCC1 (stereo not shown) [Compound 11]    > 3000 mg/kg
CCOC(=O)C(Oc1ccc2c(c1)CCCC2)C1CCCCC1 (stereo not shown) [Compound 10]    2500 mg/kg
CCOC(=O)C(Oc1ccc(Oc2ccc(Cl)cc2)cc1)C1CCCCC1 (stereo not shown) [Compound 17]    > 3000 mg/kg
CCOC(=O)C(Oc1ccc(-c2ccc(Cl)cc2)cc1)C1CCCCC1 (stereo not shown) [Compound 18]    > 3000 mg/kg

## Input Consider the compound CCOC(=O)C(Oc1ccc(Cl)cc1)C1CCCCC1 (stereo not shown) [Compound 3] and give its recorded LD50 at 72 h.
## Output > 3000 mg/kg

----------
- protocol-description: acute toxicity tests in mice (Test 2)
- condition-summary: mouse, in vivo; male mice, oral, in olive oil; mortality after 72 hours, area method
# LD50 at 72 h annotations

Please review the following examples before continuing.
CCOC(=O)C(Oc1ccc(C(C)(C)c2ccccc2)cc1)C1CCCCC1 (stereo not shown) [Compound 9]    > 3000 mg/kg
CCOC(=O)C(Oc1ccc(CC)cc1)C1CCCCC1 (stereo not shown) [Compound 14]    > 3000 mg/kg
CCOC(=O)C(Oc1ccc(Oc2ccccc2)cc1)C1CCCCC1 (stereo not shown) [Compound 16]    > 3000 mg/kg

// switching to the query compound
## Input In one line, give reported LD50 at 72 h of the entry CCOC(=O)C(Oc1ccc(Cl)c2ccccc12)C1CCCCC1 (stereo not shown) [Compound 15] .
## Output 2500 mg/kg

Just for reference, patent US4278678A is where these values come from.
